target: AHR (Homo sapiens, UniProt P35869); construct: U87 MG glioblastoma cells (ATCC #HTB-14) endogenously expressing AHR; endogenous in cells; host or cells: U87 MG glioblastoma cells (ATCC #HTB-14); experiment: In vitro assay 1: antagonism in human cell line (AHR transactivation, firefly luciferase reporter, kynurenic acid prestimulated); assay type: cell-based; conditions: AHR Antagonism Human IC50 [M], firefly luciferase reporter
Sequence (P35869 11-848): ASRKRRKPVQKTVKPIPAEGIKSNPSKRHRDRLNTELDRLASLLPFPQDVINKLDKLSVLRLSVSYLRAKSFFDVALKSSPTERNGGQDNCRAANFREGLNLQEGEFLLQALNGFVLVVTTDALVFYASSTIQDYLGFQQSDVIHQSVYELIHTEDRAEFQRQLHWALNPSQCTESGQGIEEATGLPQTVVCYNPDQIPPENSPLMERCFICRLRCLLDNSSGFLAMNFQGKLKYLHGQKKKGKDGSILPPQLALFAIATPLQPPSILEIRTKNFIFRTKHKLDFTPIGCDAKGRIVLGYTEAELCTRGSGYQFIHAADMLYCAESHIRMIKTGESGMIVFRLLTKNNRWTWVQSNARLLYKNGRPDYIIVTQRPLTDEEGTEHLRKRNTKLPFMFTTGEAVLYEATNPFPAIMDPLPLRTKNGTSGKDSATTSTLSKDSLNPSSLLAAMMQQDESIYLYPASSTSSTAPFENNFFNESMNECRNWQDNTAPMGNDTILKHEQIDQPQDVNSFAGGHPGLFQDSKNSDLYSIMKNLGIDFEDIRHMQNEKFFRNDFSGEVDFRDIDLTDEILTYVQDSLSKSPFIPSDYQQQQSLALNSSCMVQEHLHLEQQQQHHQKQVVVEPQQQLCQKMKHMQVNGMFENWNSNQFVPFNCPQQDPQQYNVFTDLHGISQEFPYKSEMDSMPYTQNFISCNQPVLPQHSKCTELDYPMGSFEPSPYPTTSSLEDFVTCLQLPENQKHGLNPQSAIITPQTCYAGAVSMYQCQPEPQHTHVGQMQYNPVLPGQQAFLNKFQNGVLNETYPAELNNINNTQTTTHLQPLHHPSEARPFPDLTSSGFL
property measured: IC50 (M)
Write down the numeric answer in M and omit the unit.

CC(C)n1cc(-c2nc3c4cccc(C5CC5)c4nc(N[C@@H]4CCCCNC4=O)n3n2)cn1: 6.33e-09

Q: Form entry - test system: AHR (Homo sapiens, UniProt P35869); read-out: IC50; compound: CC(C)n1cc(-c2nc3c4cccc(C5CC5)c4nc(N[C@@H]4CNCCNC4=O)n3n2)cn1
Result: 5.57e-08

Q: Form entry - test system: AHR (Homo sapiens, UniProt P35869); read-out: IC50; compound: COc1ccc(-c2nc3c4cccc(Br)c4nc(N[C@H]4CNCCNC4=O)n3n2)cc1
Result: 3.09e-08

Q: Form entry - test system: AHR (Homo sapiens, UniProt P35869); read-out: IC50; compound: C[C@@H](Nc1nc2c(Br)cccc2c2nc(-c3cnn(C)c3)nn12)C(=O)NCCN1CCN(C)CC1
Result: 1.71e-07

Q: Form entry - test system: AHR (Homo sapiens, UniProt P35869); read-out: IC50; compound: COCCNC(=O)[C@H](Nc1nc2c(Br)cccc2c2nc(-c3cnn(C)c3)nn12)C(C)C
Result: 3.93e-08

Q: Form entry - test system: AHR (Homo sapiens, UniProt P35869); read-out: IC50; compound: CC(C)[C@@H](Nc1nc2c(Br)cccc2c2nc(-c3cnn(C)c3)nn12)C(=O)NCCN1CCN(C)CC1
Result: 6.5e-08

Q: Form entry - test system: AHR (Homo sapiens, UniProt P35869); read-out: IC50; compound: COc1ccc(-c2nc3c4cccc(Br)c4nc(N[C@H](C)C(=O)N4C[C@H]5C[C@@H]4CN5C)n3n2)cc1
Result: 4.09e-09

----------
Target: AHR (Mus musculus)
Sequence (P30561 whole entry P471L/N533S/M589L, form open): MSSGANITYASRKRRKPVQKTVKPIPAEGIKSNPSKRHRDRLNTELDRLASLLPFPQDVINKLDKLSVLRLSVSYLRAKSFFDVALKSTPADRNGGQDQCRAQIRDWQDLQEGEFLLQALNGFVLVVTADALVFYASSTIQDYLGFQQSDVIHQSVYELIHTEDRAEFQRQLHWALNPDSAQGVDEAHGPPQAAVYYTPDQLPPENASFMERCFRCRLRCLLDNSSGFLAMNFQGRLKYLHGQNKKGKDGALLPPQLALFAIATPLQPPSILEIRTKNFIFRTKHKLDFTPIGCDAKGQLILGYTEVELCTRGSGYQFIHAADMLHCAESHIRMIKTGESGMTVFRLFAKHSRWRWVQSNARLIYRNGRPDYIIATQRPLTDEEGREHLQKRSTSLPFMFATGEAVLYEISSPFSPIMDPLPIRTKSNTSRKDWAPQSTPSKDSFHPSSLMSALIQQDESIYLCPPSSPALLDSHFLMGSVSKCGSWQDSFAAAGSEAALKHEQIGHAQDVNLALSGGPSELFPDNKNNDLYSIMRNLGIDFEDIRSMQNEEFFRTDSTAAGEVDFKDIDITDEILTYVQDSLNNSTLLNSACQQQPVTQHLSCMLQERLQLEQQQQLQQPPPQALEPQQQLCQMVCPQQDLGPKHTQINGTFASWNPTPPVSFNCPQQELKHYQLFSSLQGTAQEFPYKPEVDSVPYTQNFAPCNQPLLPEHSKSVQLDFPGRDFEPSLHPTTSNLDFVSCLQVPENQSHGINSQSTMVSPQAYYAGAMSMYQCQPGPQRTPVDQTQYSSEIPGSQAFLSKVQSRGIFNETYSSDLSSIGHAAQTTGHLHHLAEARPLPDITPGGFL
Assay: In vitro assay 3: antagonism in mouse cell line (AHR transactivation, firefly luciferase reporter, kynurenic acid prestimulated)
Format: cell-based
Details: mouse Hepa 1c1c7 cells, 200 μM kynurenic acid, 20 hours, read-out: AHR Antagonism Mouse IC50
Description: Examples were tested in selected biological assays one or more times. […] Firefly luciferase activity was determined by the SteadyGlo Luciferase Assay System (Promega, #E2550).
Below, each of the compounds is paired with its reported IC50 value.
Write down the numeric answer in nM and omit the unit.

Q: Fill in the blank: the reported IC50 of COc1ccc(-c2nc3c4cccc(Br)c4nc(N[C@@H]4CCCCNC4=O)n3n2)c(OC(F)(F)F)c1 [Example 565] is ____.
Result: 3.33

Q: Fill in the blank: the reported IC50 of COc1ccc(-c2nc3c4cc(C)ccc4nc(N[C@@H]4CNCCNC4=O)n3n2)cc1 [Example 280] is ____.
Result: 33.3

----------
biological target: AHR (Mus musculus); assay: In vitro assay 3: antagonism in mouse cell line (AHR transactivation, firefly luciferase reporter, kynurenic acid prestimulated); assay type: cell-based; conditions: read-out: AHR Antagonism Mouse IC50, mouse Hepa 1c1c7 cells, 200 μM kynurenic acid, 20 hours
Below, each of the compounds is paired with its reported IC50 value.
Write down the numeric answer in nM and omit the unit.

# count of solved cases: 2
O=C1NCCCC[C@@H]1Nc1nc2ccccc2c2nc(-c3cccc(F)c3)nn12 [Example 10]: 7.93
CS(=N)(=O)c1ccccc1-c1nc2c3ccccc3nc(N[C@@H]3CCCCNC3=O)n2n1 (stereo partly shown) [Example 650]: 67.1

Q: Fill in the blank: the reported IC50 of CCCC[C@H](Nc1nc2ccccc2c2nc(-c3cccc(OC(F)(F)F)c3)nn12)C(N)=O (racemic) [Example 322] is ____.
Result: 35.7

Q: Fill in the blank: the reported IC50 of CC(C)c1cccc2c1nc(N[C@@H]1CCCCNC1=O)n1nc(-c3ccc(F)cc3)nc21 [Example 393] is ____.
Result: 34.2
